These measurements were taken from patent US20200199213A1.

- target-or-test-system: T1, human ANGPTL3 (human, UniProt Q9Y5C1 17-460)
- T1 construct: Biotinylated in the ELISA assays; also called hANGPTL3; free ANGPTL3
- T1 sequence: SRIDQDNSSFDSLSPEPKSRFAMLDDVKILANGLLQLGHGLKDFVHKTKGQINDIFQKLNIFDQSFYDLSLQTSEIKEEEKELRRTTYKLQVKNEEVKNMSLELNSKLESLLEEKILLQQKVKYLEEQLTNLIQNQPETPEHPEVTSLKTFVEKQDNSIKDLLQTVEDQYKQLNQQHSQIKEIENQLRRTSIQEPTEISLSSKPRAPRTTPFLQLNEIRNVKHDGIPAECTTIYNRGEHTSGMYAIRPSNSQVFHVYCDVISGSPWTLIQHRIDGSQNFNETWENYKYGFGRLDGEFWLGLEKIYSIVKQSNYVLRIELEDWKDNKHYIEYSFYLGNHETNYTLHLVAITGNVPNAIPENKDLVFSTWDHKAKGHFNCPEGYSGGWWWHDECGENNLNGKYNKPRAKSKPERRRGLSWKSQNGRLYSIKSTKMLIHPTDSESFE
- procedure-text: ELISA; Ab captured by anti-human Fc; biotinylated antigen at 3.70 nM
measurement-label: OD at 560 nm (OD 560 nm)
Record the value in OD 560 nm, omitting the unit from your answer.

binder: Ab with LC variant having a D33A mutation (SEQ ID NO:22) and a HC of SEQ ID NO:6 (antibody, human IgG4 S228P, kappa, F234A L235A, V domains shown, also called D33A Variant Ab; D33A Ab) VH: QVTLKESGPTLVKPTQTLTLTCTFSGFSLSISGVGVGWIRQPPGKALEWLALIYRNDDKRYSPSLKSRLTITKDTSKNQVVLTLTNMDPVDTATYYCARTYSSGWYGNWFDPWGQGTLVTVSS VL: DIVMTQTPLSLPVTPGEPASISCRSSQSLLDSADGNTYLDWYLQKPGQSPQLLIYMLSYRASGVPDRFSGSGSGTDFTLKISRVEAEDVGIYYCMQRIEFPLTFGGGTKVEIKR
units-symbol: OD 560 nm
OD at 560 nm: 0.056

binder: Ab with LC variant having a E99Q mutation (SEQ ID NO:25) and a HC of SEQ ID NO:6 (antibody, human IgG4 S228P, kappa, F234A L235A, V domains shown, also called E99Q Variant Ab; E99Q Ab) VH: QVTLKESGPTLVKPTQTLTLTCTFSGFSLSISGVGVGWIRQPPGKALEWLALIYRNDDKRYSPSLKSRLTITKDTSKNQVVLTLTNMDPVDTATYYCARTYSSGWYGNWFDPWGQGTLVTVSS VL: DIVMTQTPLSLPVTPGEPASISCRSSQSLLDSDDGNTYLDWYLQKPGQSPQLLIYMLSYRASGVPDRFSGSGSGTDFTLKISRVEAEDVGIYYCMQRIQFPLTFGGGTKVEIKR
units-symbol: OD 560 nm
OD at 560 nm: 0.06

binder: anti-ANGPTL3/8 complex Ab having a LC of SEQ ID NO:5 and a HC of SEQ ID NO:6 (antibody, human IgG4 S228P, kappa, F234A L235A, V domains shown, In the ELISA assays tested as IgG from CHO supernatants; also called the Ab) VH: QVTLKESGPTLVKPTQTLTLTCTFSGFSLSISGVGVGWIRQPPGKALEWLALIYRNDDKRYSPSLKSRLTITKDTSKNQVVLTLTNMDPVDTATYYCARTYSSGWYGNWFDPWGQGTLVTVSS VL: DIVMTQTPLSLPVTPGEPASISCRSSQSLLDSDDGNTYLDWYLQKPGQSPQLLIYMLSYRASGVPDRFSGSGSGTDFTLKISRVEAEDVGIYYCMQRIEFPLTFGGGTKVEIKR
units-symbol: OD 560 nm
OD at 560 nm: 0.046

Consider the additional binder presented here.
(Q) # lookup: OD at 560 nm of Ab with LC variant having a D31S mutation (SEQ ID NO:21) and a HC of SEQ ID NO:6 (antibody, human IgG4 S228P, kappa, F234A L235A, V domains shown, also called D31S Variant Ab; D31S Ab) VH: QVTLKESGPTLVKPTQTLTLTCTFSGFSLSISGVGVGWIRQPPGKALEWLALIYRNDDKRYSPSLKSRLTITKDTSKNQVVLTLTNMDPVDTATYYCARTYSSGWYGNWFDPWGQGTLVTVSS VL: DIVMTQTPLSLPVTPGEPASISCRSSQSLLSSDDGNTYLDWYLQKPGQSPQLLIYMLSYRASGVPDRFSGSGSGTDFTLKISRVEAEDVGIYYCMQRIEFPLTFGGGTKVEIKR
(A) 0.06
